Attribute: fold affinity vs original
Target: binding partner of C5A (XPA23)
Experiment: Biacore
Readout name: fold affinity vs original (fold)

1) C5A (XPA23) VH S54Y (antibody, V domains shown) VH: EVQLLESGGGLVQPGGSLRLSCAASGFTFSKYFMFWVRQAPGKGLEWVSVISPYGGMTRYADSVKGRFTISRDNSKNTLYLQMNSLRAEDTAVYYCARVGYGGNSDYWGQGTLVTVSS VL: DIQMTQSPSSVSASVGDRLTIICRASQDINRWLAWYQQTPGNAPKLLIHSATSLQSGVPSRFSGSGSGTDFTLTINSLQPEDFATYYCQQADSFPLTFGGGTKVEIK | 0.99
2) C5A (XPA23) VH K31Y (antibody, V domains shown) VH: EVQLLESGGGLVQPGGSLRLSCAASGFTFSYYFMFWVRQAPGKGLEWVSVISPSGGMTRYADSVKGRFTISRDNSKNTLYLQMNSLRAEDTAVYYCARVGYGGNSDYWGQGTLVTVSS VL: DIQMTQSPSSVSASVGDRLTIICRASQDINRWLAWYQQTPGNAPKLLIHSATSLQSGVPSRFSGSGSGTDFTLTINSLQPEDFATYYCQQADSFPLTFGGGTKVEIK | 0.04
3) C5A (XPA23) VH G56H (antibody, V domains shown) VH: EVQLLESGGGLVQPGGSLRLSCAASGFTFSKYFMFWVRQAPGKGLEWVSVISPSGHMTRYADSVKGRFTISRDNSKNTLYLQMNSLRAEDTAVYYCARVGYGGNSDYWGQGTLVTVSS VL: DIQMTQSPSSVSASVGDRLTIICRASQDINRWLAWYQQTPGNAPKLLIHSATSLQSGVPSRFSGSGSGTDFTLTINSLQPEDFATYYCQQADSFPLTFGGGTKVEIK | 0.82
